# Test system: TK-10 renal
# testMethodNotes: NCI tumour cell line growth inhibition, 48 h
Let's look at some molecules and their measured TGI.

[
  {
    "molecule": "Oc1c(C(Nc2ccccn2)c2ccccc2)ccc2cccnc12 (configuration not stated)",
    "assaySystem": "TK-10 renal",
    "relationalOperator": ">",
    "TGI, µM": 25.9
  },
  {
    "molecule": "Cc1ccsc1C(NC(=O)c1ccccc1)c1cc(Cl)c2cccnc2c1O (configuration not stated)",
    "assaySystem": "TK-10 renal",
    "relationalOperator": "=",
    "TGI, µM": 12.6
  },
  {
    "molecule": "CCCN=C1NC(C)=CSC(Nc2ccccc2)=C1C#N",
    "assaySystem": "TK-10 renal",
    "relationalOperator": ">",
    "TGI, µM": 100
  },
  {
    "molecule": "CC1Cc2c(Cl)ncnc2N(C)c2ccccc21 (configuration not stated)",
    "assaySystem": "TK-10 renal",
    "relationalOperator": "=",
    "TGI, µM": 8.87
  },
  {
    "molecule": "CC1=CC2(C)/C=C(C)/C=C\\CC(O)/C=C3/C=CC(=C4C(=O)OC2(CC1C)C4=O)OC3 (configuration not stated)",
    "assaySystem": "TK-10 renal",
    "relationalOperator": "=",
    "TGI, µM": 3.46
  },
  {
    "molecule": "OC(c1cc(C(F)(F)F)nc2c(Cl)cc(Cl)cc12)C1CCCCN1 (configuration not stated)",
    "assaySystem": "TK-10 renal",
    "relationalOperator": ">",
    "TGI, µM": 32.8
  },
  {
    "molecule": "CN(C(=O)C(C)(C)C)c1ccccc1I(=O)=O",
    "assaySystem": "TK-10 renal",
    "relationalOperator": ">",
    "TGI, µM": 100
  }
]

---

# Tested on: COLO 205 colon
# testMethodNotes: NCI tumour cell line growth inhibition, 48 h; in the data active means GI50 below about 0.43 µM; inactive means the rest
Classes used: T for active, F for inactive

[
  {
    "molecule": "CN1CCN(Cc2ccc(NC(=O)c3cncc(C#Cc4ccc(N)nc4)c3)cc2C(F)(F)F)CC1",
    "assignedLabel": "F"
  },
  {
    "molecule": "CCOC(=O)C1=C(Nc2ccc(OC)cc2)C(N)=NC1=N",
    "assignedLabel": "F"
  },
  {
    "molecule": "Clc1cnc(Nc2ccc(OCCN3CCCC3)cc2)nc1NCc1ccco1",
    "assignedLabel": "F"
  },
  {
    "molecule": "Cn1nc(C(F)(F)F)cc1-c1cc(Cl)c(OCc2ccc(Cl)cc2)c(-c2ccc(Cl)c(C(F)(F)F)c2)c1O",
    "assignedLabel": "F"
  },
  {
    "molecule": "COC(=O)Nc1nc2ccc(C(=O)c3cccc(I)c3)cc2[nH]1",
    "assignedLabel": "T"
  },
  {
    "molecule": "CC(C)(C)NCC(O)c1ccccc1Cl (stereo not given)",
    "assignedLabel": "F"
  },
  {
    "molecule": "COc1ccc(C(=O)/C=C/c2ccc(OCc3cccc(C(F)(F)F)c3)c(OC)c2)cc1OC",
    "assignedLabel": "F"
  },
  {
    "molecule": "COc1c(C(N)=O)cc(-c2ccc(Cl)cc2)cc1-c1ccc(S(N)(=O)=O)cc1",
    "assignedLabel": "F"
  },
  {
    "molecule": "CCOC(=O)N1CCC(N=C2CSc3nnc(-c4cc(C(F)(F)F)cc(C(F)(F)F)c4)n3N2)CC1",
    "assignedLabel": "F"
  },
  {
    "molecule": "Cc1ccc2sc3c(NCCCN)nc4ccccc4c3c(=O)c2c1",
    "assignedLabel": "F"
  }
]

The measured values listed here are drawn from PubChem BioAssay (NCI).
